Target: Fuc(a1-2)Gal(b1-3)GlcNAc(b1-2)Man(a1-3)[Fuc(a1-2)Gal(b1-3)GlcNAc(b1-2)Man(a1-6)]Man(b1-4)GlcNAc(b1-4)GlcNAc
Assay: glycan array binding signal (z-score within array); higher = stronger binding
Settings: glycan notation: IUPAC condensed, linker removed
Many of the other results were omitted from the sample, so the strongest signals are more common in it than they were.
Label condition met when glycan array binding signal (z-score) is at or above 0.8; anything below gets condition not met.

# bool: glycan array binding signal (z-score) of Neuropilin-1 (Homo sapiens), O14786 (protein) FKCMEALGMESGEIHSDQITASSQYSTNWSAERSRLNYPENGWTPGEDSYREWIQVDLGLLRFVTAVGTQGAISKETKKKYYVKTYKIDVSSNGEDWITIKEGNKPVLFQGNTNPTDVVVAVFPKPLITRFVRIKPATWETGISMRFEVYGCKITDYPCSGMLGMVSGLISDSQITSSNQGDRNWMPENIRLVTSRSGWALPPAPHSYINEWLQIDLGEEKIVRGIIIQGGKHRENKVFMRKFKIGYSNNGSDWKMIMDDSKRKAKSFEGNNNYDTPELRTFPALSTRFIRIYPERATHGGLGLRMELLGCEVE >= 0.8
condition met

Could you do the same for Gal 8 (Homo sapiens), O00214_1 (protein) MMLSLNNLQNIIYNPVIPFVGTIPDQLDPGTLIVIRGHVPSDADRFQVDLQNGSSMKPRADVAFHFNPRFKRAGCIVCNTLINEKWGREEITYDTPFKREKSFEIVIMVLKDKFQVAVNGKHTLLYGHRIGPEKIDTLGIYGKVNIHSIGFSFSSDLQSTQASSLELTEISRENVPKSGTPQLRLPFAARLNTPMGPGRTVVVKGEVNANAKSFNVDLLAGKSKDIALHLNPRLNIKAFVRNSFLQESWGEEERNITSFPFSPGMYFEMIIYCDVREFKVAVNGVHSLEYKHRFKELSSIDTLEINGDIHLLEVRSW , please?
condition not met

For Microvirin-2 (Microcystis aeruginosa) (protein) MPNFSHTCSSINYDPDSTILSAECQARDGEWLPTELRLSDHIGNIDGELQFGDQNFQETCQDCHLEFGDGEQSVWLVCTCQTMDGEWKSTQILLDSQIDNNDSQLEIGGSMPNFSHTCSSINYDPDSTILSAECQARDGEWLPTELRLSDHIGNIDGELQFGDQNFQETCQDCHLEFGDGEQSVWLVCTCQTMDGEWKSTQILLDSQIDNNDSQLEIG then?
condition not met

Same lookup for LlpA1 (Pseudomonas fluorescens), Q4KHC3 (protein) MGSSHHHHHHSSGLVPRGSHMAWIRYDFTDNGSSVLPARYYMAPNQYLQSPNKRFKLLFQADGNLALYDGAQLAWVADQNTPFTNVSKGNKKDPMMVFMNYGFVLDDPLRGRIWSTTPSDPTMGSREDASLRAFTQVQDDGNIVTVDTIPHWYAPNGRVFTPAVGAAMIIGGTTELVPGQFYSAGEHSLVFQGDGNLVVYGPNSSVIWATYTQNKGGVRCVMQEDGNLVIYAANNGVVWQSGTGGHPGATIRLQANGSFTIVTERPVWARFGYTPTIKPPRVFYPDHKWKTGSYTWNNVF , please.
condition met
